Tested on: Pseudomonas aeruginosa PA14
procedure.text: Static peg assay for prevention of biofilm formation (Calgary device, crystal violet)
Type: cell-based
experimental.parameters: Pseudomonas aeruginosa, PA14, 24 h, 25° C., 24 hours, Table 15; read-out: (2) IC50 (biofilm inhibition)
metric: pIC50
Friendly reminder that pIC50 comes from taking -log10 of the concentration in mol/L.

Which pIC50 value belongs to CCCCCCCCN1c2nccc[n+]2C[C@@]1(O)c1cccc2ccccc12 [Compound 52] ?
4.78

====

System: Salmonella Typhimurium ATCC 14028
procedure.text: Antibacterial activity: growth inhibition, OD600 after 24 h (GIC50)
Format: cell-based
experimental.parameters: Salmonella enterica; 25° C.
pIC50: −log10 of the molar value.
This listing pairs molecules with measured pIC50.

Here's what some known entries look like.
COc1ccc(CCN2c3nccc[n+]3CC2(O)c2ccc([N+](=O)[O-])cc2)cc1OC (centres unmarked)    3.70 to 4.00
COc1ccc(C2(O)C[n+]3cccnc3N2C2CCCCC2)cc1 (centres unmarked)    4.00 to 4.30
O=[N+]([O-])c1cccc(C2(O)C[n+]3cccnc3N2C2CCCCCCCCCCC2)c1.[Br-] (centres unmarked)    4.92 to 5.22

Consider now this further molecule.
Which pIC50 value belongs to OC1(c2ccc(Br)cc2)C[n+]2cccnc2N1C1CC1.[Br-] (centres unmarked) ?
4.30 to 4.60

Every entry's value here was drawn from patent US20130029981A1.
